testedSystem: Ba/F3 EGFR-Del19/C797S (Homo sapiens, UniProt P00533, C797S, cells depend on it, form not given)
Sequence (P00533 with tags, fused parts or gaps DEL746-750/C797S, form open): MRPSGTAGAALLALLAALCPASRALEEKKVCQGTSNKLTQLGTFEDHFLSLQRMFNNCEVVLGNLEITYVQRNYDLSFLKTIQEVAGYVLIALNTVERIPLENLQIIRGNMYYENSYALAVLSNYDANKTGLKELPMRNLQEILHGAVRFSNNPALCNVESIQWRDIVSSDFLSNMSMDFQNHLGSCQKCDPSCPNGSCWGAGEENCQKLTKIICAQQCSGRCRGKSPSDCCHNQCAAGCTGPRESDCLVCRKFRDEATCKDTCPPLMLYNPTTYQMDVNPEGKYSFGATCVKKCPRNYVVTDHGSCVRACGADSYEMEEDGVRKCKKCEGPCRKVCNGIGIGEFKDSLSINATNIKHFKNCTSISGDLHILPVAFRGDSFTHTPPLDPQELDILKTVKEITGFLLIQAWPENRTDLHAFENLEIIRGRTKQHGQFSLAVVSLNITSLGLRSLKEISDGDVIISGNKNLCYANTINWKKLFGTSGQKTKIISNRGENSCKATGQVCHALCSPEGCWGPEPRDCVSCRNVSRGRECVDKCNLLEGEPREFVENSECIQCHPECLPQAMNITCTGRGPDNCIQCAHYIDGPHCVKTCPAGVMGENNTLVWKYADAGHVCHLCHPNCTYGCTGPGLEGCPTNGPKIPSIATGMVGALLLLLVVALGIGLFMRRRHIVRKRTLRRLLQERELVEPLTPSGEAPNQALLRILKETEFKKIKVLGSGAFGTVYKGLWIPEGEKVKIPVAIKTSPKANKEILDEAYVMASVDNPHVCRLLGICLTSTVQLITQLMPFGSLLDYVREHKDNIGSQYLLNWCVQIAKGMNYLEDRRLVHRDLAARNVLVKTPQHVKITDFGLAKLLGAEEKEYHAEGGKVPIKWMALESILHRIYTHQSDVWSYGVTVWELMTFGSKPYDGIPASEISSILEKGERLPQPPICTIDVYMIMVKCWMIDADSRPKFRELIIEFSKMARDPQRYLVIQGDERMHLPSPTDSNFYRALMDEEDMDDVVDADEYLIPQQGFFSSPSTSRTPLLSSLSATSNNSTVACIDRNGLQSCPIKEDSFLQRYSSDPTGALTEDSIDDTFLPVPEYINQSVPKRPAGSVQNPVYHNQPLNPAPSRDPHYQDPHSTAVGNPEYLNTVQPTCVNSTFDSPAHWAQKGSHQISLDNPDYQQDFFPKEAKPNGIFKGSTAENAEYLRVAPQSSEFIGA
protocolNotes: Ba/F3 viability assay (CellTiter-Glo), EGFR-Del19/C797S (DC)
Format: cell-based
testSettings: Ba/F3 EGFR-Del19/C797S anti-proliferation; read-out: BAF3 DC IC50
measuredParameter: GI50

- compound: "CCOc1nn(C2CC3CCC(C2)N3C)cc1-c1cnc2cc1O[C@@H](C)CCOc1c(cnn1C)-c1nccc(n1)N2 (stereo partly shown) [(37)]"
  result: "< 50 nM"
- compound: "CCOc1nn(C2CC(C)(C)OC(C)(C)C2)cc1-c1cnc2cc1O[C@@H](C)CCOc1c(cnn1C)-c1nccc(n1)N2 [(33)]"
  result: "50 to 100 nM"
- compound: "C[C@H]1CCOc2c(cnn2C)-c2nccc(n2)Nc2cc(c(-c3cn(C)cc3OCC(F)(F)F)cn2)O1 [(48)]"
  result: "< 50 nM"
- compound: "CCOc1nn(C2CCN(C3COC3)CC2)cc1-c1cnc2cc1O[C@@H](C)CCOc1c(cnn1C)-c1nccc(n1)N2 [(40)]"
  result: "< 50 nM"
- compound: "CCOc1ncc(C)cc1-c1cnc2cc1O[C@@H](C)CCOc1c(cnn1C)-c1nccc(n1)N2 [(35)]"
  result: "≥ 1000 nM"
- compound: "C[C@H]1CCOc2c(cnn2C)-c2nccc(n2)Nc2cc(c(-c3ncc(CN4CCOCC4)s3)cn2)O1 [(115)]"
  result: "< 50 nM"
- compound: "Cc1c(-c2cnc3cc2O[C@@H](C)CCOc2c(cnn2C)-c2nccc(n2)N3)cnn1C1CCN(CCCF)CC1 [(84)]"
  result: "< 50 nM"

----------
testedSystem: Ba/F3 EGFR-Del19/T790M (Homo sapiens, UniProt P00533, T790M, cells depend on it, form not given)
Sequence (P00533 with tags, fused parts or gaps DEL746-750/T790M, form open): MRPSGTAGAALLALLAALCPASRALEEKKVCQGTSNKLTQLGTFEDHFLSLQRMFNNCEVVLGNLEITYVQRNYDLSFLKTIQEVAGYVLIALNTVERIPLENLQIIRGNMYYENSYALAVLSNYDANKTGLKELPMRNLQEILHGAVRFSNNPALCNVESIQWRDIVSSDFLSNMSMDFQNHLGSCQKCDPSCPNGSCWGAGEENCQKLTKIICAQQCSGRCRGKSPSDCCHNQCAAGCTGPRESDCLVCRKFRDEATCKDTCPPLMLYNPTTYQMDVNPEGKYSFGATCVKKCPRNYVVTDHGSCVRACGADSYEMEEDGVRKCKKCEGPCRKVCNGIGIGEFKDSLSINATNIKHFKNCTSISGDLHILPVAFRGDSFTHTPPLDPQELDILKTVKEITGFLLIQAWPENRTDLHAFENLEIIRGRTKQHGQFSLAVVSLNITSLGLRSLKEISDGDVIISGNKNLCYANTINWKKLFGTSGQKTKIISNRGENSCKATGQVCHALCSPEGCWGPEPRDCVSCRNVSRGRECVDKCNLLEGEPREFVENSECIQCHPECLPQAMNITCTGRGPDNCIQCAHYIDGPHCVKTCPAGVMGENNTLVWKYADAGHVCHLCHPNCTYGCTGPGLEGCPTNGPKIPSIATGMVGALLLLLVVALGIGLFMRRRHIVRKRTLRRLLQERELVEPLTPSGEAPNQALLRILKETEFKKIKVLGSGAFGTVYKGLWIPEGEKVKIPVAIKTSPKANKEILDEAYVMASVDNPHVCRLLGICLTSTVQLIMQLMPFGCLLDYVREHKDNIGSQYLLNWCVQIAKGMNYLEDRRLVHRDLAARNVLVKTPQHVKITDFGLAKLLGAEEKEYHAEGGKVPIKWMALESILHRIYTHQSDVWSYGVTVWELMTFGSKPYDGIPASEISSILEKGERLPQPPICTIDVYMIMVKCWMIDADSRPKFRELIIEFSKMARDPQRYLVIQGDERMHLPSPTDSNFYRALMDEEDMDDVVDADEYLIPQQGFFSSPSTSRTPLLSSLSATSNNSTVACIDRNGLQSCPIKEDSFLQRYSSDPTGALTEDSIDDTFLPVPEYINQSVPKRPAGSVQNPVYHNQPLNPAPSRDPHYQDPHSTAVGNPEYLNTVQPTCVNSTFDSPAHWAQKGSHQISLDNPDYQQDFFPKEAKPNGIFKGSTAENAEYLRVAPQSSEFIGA
protocolNotes: Ba/F3 viability assay (CellTiter-Glo), EGFR-Del19/T790M (DT)
Type: cell-based
testSettings: Ba/F3 EGFR-Del19/T790M anti-proliferation; read-out: BAF3 DT IC50

- compound: "Cc1c(-c2cnc3cc2O[C@@H](C)CCOc2c(cnn2C)-c2nccc(n2)N3)cnn1C1CCN(CCCF)CC1"
  GI50: "< 50 nM"
- compound: "C[C@H]1CCOc2c(cnn2C)-c2nccc(n2)Nc2cc(c(-c3ccc(CN4CCN(C)CC4)n3C)cn2)O1"
  GI50: "100 to 1000 nM"
- compound: "C[C@H]1CCOc2c(cnn2C)-c2nccc(n2)Nc2cc(c(-c3cccc(NCCN(C)C)c3)cn2)O1"
  GI50: "< 50 nM"
- compound: "C[C@H]1CCOc2c(cnn2C)-c2nccc(n2)Nc2cc(c(-c3ccc4c(ccn4C)c3)cn2)O1"
  GI50: "50 to 100 nM"
- compound: "CC1CCOc2c(cnn2C)-c2nccc(n2)Nc2cc(c(-c3ccc(CN4CCN(C)CC4)cc3)cn2)O1 (stereo not shown)"
  GI50: "< 50 nM"
- compound: "CCOc1nn(C2CCN(C3COC3)CC2)cc1-c1cnc2cc1O[C@@H](C)CCOc1c(cnn1C)-c1nccc(n1)N2"
  GI50: "< 50 nM"
- compound: "COc1cc(CN2CCN(C)CC2)ccc1-c1cnc2cc1O[C@@H](C)CCOc1c(cnn1C)-c1nccc(n1)N2"
  GI50: "50 to 100 nM"

Numbers sourced from patent US20240150375A1.
